Where do the numbers come from? From patent US20260297070A1.

Target: human Werner helicase (WRN-BV08, Uniprot Q14191, amino acids 517-1235 with L1074F point mutation) (Homo sapiens, UniProt Q14191, L1074F)
Construct: Uniprot Q14191, amino acids 517-1235 with L1074F point mutation; TEV-cleavable 8×His (C, cleaved yes); made in house; host or cells: Sf9 insect cells (baculovirus)
Sequence (Q14191 with tags, fused parts or gaps L1074F limits assumed): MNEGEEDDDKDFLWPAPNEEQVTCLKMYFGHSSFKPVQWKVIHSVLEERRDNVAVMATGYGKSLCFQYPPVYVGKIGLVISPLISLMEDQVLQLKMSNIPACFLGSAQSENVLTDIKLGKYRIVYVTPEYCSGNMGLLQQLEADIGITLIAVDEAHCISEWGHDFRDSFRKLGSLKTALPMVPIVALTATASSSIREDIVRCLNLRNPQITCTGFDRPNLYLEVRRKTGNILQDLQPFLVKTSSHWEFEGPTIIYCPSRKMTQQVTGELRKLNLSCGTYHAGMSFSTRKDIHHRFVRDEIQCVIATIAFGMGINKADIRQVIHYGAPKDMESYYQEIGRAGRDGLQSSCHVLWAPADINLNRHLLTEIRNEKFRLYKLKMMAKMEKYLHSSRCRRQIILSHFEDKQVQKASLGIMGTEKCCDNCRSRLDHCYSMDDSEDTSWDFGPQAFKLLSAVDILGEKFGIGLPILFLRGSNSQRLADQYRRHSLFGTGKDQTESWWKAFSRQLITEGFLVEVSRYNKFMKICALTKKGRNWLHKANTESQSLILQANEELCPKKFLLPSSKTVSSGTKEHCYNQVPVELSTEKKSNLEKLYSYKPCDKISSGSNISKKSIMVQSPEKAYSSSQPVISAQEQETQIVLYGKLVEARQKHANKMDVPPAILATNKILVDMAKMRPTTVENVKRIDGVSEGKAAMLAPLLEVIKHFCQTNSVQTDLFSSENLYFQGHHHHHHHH
Experiment: WRN (BV08) ADP-Glo Assay
Type: biochemical
Settings: 0.15 nM WRN, 5 μM ATP, 0.1 nM DNA duplex, 15 min preincubation, 60 min at 25° C., pH 7.5, 1% DMSO; read-out: ADP-Glo_hWRN_IC50
pIC50: −log10 of the molar value.
Field: pIC50. Provide a value for each of the compounds that follow.

{"compound": "COc1cc(CN(C(=O)C(C)c2ccc(S(F)(F)(F)(F)F)cc2)C2C=CS(=O)(=O)C2)ccn1 (stereo not drawn) [I-126]", "measurementName": "pIC50", "reported": "5.30 to 6.30"}
{"compound": "COc1cc(CN(C(=O)C(C(=O)N(C)C)c2ccc(-c3ccc(F)cc3)cc2F)C2C=CS(=O)(=O)C2)ccn1 (stereo not drawn) [I-46]", "measurementName": "pIC50", "reported": "> 6.30"}
{"compound": "O=C(Cc1ccc(-n2cccc2)cc1)N(C1C=CS(=O)(=O)C1)C1CCCc2cnccc21 (stereo not drawn) [I-471]", "measurementName": "pIC50", "reported": "< 4.30"}
{"compound": "O=C(Cc1ccc(-n2cccc2)cc1)N(Cc1ccccc1N1CCC(O)C1)C1C=CS(=O)(=O)C1 (stereo not drawn) [I-372]", "measurementName": "pIC50", "reported": "< 4.30"}
{"compound": "O=C(Cc1ccc(-n2cccc2)cc1)N(Cc1ccc2[nH]ccc2c1)C1C=CS(=O)(=O)C1 (stereo not drawn) [I-498]", "measurementName": "pIC50", "reported": "< 4.30"}

Record pIC50 for all entries; do not skip any.
1. CC(C)c1ccc(CC(=O)N(Cc2ccncc2)C2C=CS(=O)(=O)C2)c(F)c1 (stereo not drawn) [I-151]
2. O=C(Cc1ccc(-c2cc(F)cc(F)c2)cc1)N(Cc1ccncc1)C1C=CS(=O)(=O)C1 (stereo not drawn) [I-166]
3. COc1ccc(CN(C(=O)Cc2ccc(-n3cccc3)cc2)C2C=CS(=O)(=O)C2)cc1 (stereo not drawn) [I-219]
4. COc1cc(CN(C(=O)C(c2ccc(-c3ccc(F)c(F)c3)cc2F)n2ncc3ccncc32)[C@@H]2C=CS(=O)(=O)C2)ccn1 (stereo partly drawn) [I-751]
5. O=C(Cc1ccc(-n2cccc2)cc1)N(CC12CC(C1)C2)C1C=CS(=O)(=O)C1 (stereo not drawn) [I-540]
6. O=C(Cc1ccc(-n2cccc2)cc1)N(Cc1ccc[nH]c1=O)C1C=CS(=O)(=O)C1 (stereo not drawn) [I-369]

Data returned:
1: 5.30 to 6.30; 2: 5.30 to 6.30; 3: 5.00 to 5.30; 4: 4.30 to 5.00; 5: < 4.30; 6: 4.30 to 5.00

Record pIC50 for all entries; do not skip any.
1. O=C(C1CCc2ccc(Br)cc21)N(Cc1ccncc1)C1C=CS(=O)(=O)C1 (stereo not drawn) [I-658]
2. COc1cc(CN(C(=O)Cc2ccc(-c3ccc(F)cc3)cc2F)C2C=CS(=O)(=O)C2)ccn1 (stereo not drawn) [I-87]
3. O=C([C@H]1CC[C@@H](C(F)(F)F)O1)N(Cc1ccncc1)C1C=CS(=O)(=O)C1 (mixture of isomers) [I-714]
4. O=C(Cc1ccc(S(F)(F)(F)(F)F)cc1)N(Cc1nc(C(F)F)cs1)C1C=CS(=O)(=O)C1 (stereo not drawn) [I-729]
5. O=C(C(C(=O)N(Cc1ccncc1)C1C=CS(=O)(=O)C1)c1ccc(-c2ccc(F)cc2)cc1)N1CCCC1 (stereo not drawn) [I-125]
6. CC(C)(O)c1cc(CN(C(=O)Cc2ncc(-c3cc(F)c(F)c(F)c3)s2)C2C=CS(=O)(=O)C2)ccn1 (single isomer, unassigned) [I-794]
7. CC(C)(O)c1cc(CN(C(=O)Cn2cc(-c3cc(F)c(F)c(F)c3)c(F)n2)[C@@H]2C=CS(=O)(=O)C2)ccn1 [I-832]

Data returned:
["< 4.30", "5.30 to 6.30", "< 4.30", "< 4.30", "5.30 to 6.30", "5.30 to 6.30", "> 6.30"]

Record pIC50 for all entries; do not skip any.
1. O=C(Cc1c[nH]c2cc(Cl)ccc12)N(Cc1ccncc1)C1C=CS(=O)(=O)C1 (stereo not drawn) [I-417]
2. O=C(Cc1ccc(S(F)(F)(F)(F)F)cc1)N(Cc1nc(C2CCC2)cs1)C1C=CS(=O)(=O)C1 (stereo not drawn) [I-14]

Data returned:
1. < 4.30
2. > 6.30

Record pIC50 for all entries; do not skip any.
1. O=C(Cc1coc(-c2ccc(F)c(F)c2)n1)N(Cc1ccncc1)C1C=CS(=O)(=O)C1 (stereo not drawn) [I-410]
2. COc1cc(CN(C(=O)C(O/C=C/S(C)(=O)=O)c2ccc(-c3ccc(F)c(F)c3)cc2F)[C@@H]2C=CS(=O)(=O)C2)ccn1 (single isomer, unassigned) [I-804]
3. COc1cc(CN(C(=O)C(OC2COC2)c2ccc(-c3ccc(F)c(F)c3)cc2F)[C@@H]2C=CS(=O)(=O)C2)ccn1 (single isomer, unassigned) [I-741]
4. O=C(Cc1ccc(OC(F)F)cc1)N(Cc1ccncc1)C1C=CS(=O)(=O)C1 (stereo not drawn) [I-331]
5. CC(C)(O)c1cc(CN(C(=O)Cn2ncc(-c3ccc(F)c(F)c3)cc2=O)C2C=CS(=O)(=O)C2)ccn1 (single isomer, unassigned) [I-767]

Data returned:
["< 4.30", "> 6.30", "< 4.30", "4.30 to 5.00", "> 6.30"]

Record pIC50 for all entries; do not skip any.
1. O=C(Cc1ccc(-n2cccc2)cc1)N(C1C=CS(=O)(=O)C1)C1CCC1 (stereo not drawn) [I-533]
2. COc1cc(CN(C(=O)C2CN(C)c3cc(-c4ccc(F)cc4)ccc32)C2C=CS(=O)(=O)C2)ccn1 (stereo not drawn) [I-385]
3. O=C(Cc1ccc(S(F)(F)(F)(F)F)cc1)N(Cc1ccnc(OC(F)(F)F)c1)C1C=CS(=O)(=O)C1 (stereo not drawn) [I-725]
4. O=C(Cc1ccc(-c2ccc(F)cc2)cc1C(F)F)N(Cc1ccncc1)C1C=CS(=O)(=O)C1 (stereo not drawn) [I-196]
5. O=C1Nc2cc(C(F)(F)F)ccc2SC1CC(=O)N(Cc1ccncc1)C1C=CS(=O)(=O)C1 (stereo not drawn) [I-231]

Data returned:
["< 4.30", "< 4.30", "5.30 to 6.30", "5.30 to 6.30", "5.00 to 5.30"]
